Reported efflux ratio by item:
- ASSAY_NAME: Assay C: permeability in CACO-2 cells
- Assay type: in vitro ADME
- EXPERIMENTAL_PARAMETERS: human, Caco-2, pH 7.2; read-out: Efflux Ratio

Field: example entries. Status: answers known.
COMPOUND: COc1ccc(-c2cnc3nccn3c2)c(N2CCC(c3nncn3C)CC2)c1C#N [Compound 94, reference compound]
VALUE_REPORTED: > 0.8
//
COMPOUND: Cn1cnnc1C1CCN(c2c(-c3ccnnc3)ccc(Cl)c2C#N)CC1 [Compound 33, reference compound]
VALUE_REPORTED: 45.3

Okay, next one:
Enquiry: Recorded efflux ratio of Cn1cnnc1C1CCN(c2c(C#N)cccc2-c2cnc3[nH]nc(O)c3c2)CC1 [Compound 113, reference compound] , please.
Return: > 5

---

- ASSAY_NAME: Assay C: permeability in CACO-2 cells
- Format: in vitro ADME
- EXPERIMENTAL_PARAMETERS: human, Caco-2, pH 7.2; read-out: Efflux Ratio
MEASURED_METRIC: efflux ratio

Field: example entries. Status: answers known.
COMPOUND: Cn1cnnc1C1CCN(c2c(C#N)cccc2-c2ccc3nonc3c2)CC1 [Compound 19, reference compound]
efflux ratio: 3.4
//
COMPOUND: Cn1cnnc1C1CCN(c2c(C#N)cccc2-c2cncc3c2cnn3C)CC1 [Compound 4, reference compound]
efflux ratio: 28.1

a = Cn1cnnc1C1CCN(c2c(C#N)cccc2-c2ccc3ocnc3c2)CC1 [Compound 15, reference compound]
b = Cn1cnnc1C1CCN(c2c(C#N)cccc2-c2cnc3cn[nH]c3c2)CC1 [Compound 125, reference compound]
Enquiry: Hi! Which is lower in terms of efflux ratio, the first one a or the second one b ? Lab note: record the label of whichever item you select.
Return: a

---

- Tested on: CYP3A4 mRNA
- ASSAY_NAME: Assay D: CYP induction screening assay in primary human hepatocytes
- Format: in vitro ADME
- EXPERIMENTAL_PARAMETERS: Table 9, compounds of the invention, 48 h
MEASURED_METRIC: n-fold induction of CYP3A4 at 10 μM (n-fold)

SMILES_RECORD: Cn1cnnc1C1(F)CCN(c2c(C#N)cc(C3CC3)nc2-c2cnc3nn(C)c(C(F)(F)F)c3c2)CC1
n-fold induction of CYP3A4 at 10 μM (n-fold): 5.0

SMILES_RECORD: Cn1cc(-c2cc(C#N)c(N3CCC(F)(c4nncn4C)CC3)c(-c3cnc4nn(C(F)(F)F)cc4c3)n2)cn1
n-fold induction of CYP3A4 at 10 μM (n-fold): 1.1

SMILES_RECORD: Cn1cnnc1C1(F)CCN(c2c(C#N)cc(C(C)(F)F)nc2-c2cnc3nn(C(F)(F)F)cc3c2)CC1
n-fold induction of CYP3A4 at 10 μM (n-fold): 4.2

1 = Cn1cnnc1C1(F)CCN(c2c(C#N)cc(C(C)(F)F)nc2-c2cnc3nn(C)c(C(F)(F)F)c3c2)CC1
2 = Cn1cnnc1C1(F)CCN(c2c(C#N)cc(C3CC3)nc2-c2ccnnc2)CC1
Enquiry: When 1 and 2 are compared, which has the higher number for n-fold induction of CYP3A4 at 10 μM? Lab note: record the label of whichever item you select.
Return: 1
(1: 4.2 n-fold, 2: 1.2 n-fold)

---

- System: murine hepatocytes
- ASSAY_NAME: Assay E: stability in murine hepatocytes
- Type: in vitro ADME, mouse
- EXPERIMENTAL_PARAMETERS: Table 13, prior art compounds, 1 μM, 5% species serum
MEASURED_METRIC: Mouse Hepatocyte Stability QH (%)

MOLECULE: Cn1cnnc1C1CCN(c2c(C#N)cccc2-c2cnc3cn[nH]c3c2)CC1 [Compound 125, reference compound]
VALUE_REPORTED: 45
//
MOLECULE: Cn1c(N)nnc1C1CCN(c2c(C#N)cccc2-c2ccc(F)nc2)CC1 [Compound 14, reference compound]
VALUE_REPORTED: 33
//
MOLECULE: Cn1cnnc1C1CCN(c2c(C#N)cccc2-c2ccc3ocnc3c2)CC1 [Compound 15, reference compound]
VALUE_REPORTED: 65
//
MOLECULE: COc1ccc(-c2cnc3nccn3c2)c(N2CCC(c3nncn3C)CC2)c1C#N [Compound 94, reference compound]
VALUE_REPORTED: 30
//
MOLECULE: Cn1cnnc1C1CCN(c2c(C#N)cccc2-c2ccc(F)nc2)CC1 [(1)/QP5020, reference compound]
VALUE_REPORTED: 83
//
MOLECULE: Cn1cnnc1C1CCN(c2c(C#N)cccc2-c2cnc3nccn3c2)CC1 [Compound 93, reference compound]
VALUE_REPORTED: 26
//
MOLECULE: Cn1cncc1C1CCN(c2c(C#N)cccc2-c2ccc(F)nc2)CC1 [QP5038, reference compound]
VALUE_REPORTED: 97
//
MOLECULE: Cn1cc2c(-c3cccc(C#N)c3N3CCC(c4nncn4C)CC3)cncc2n1 [Compound 16, reference compound]
VALUE_REPORTED: 61

I = COc1ccc(-c2ccnnc2)c(N2CCC(c3nncn3C)CC2)c1C#N [Compound 26, reference compound]
II = Cn1cnnc1C1CCN(c2c(C#N)cccc2-c2ccc3nonc3c2)CC1 [Compound 19, reference compound]
Enquiry: When I and II are compared, which has the higher number for Mouse Hepatocyte Stability QH? Lab note: record the label of whichever item you select.
Return: II
(II: 62%, I: 19%)

I = Cn1cnnc1C1CCN(c2c(-c3ccnnc3)ccc(Cl)c2C#N)CC1 [Compound 33, reference compound]
II = Cn1cnnc1C1CCN(c2c(C#N)cccc2-c2cncc3c2cnn3C)CC1 [Compound 4, reference compound]
Enquiry: When I and II are compared, which has the higher number for Mouse Hepatocyte Stability QH? Lab note: record the label of whichever item you select.
Return: II
(II: 92%, I: 45%)

---

- ASSAY_NAME: Assay C: permeability in CACO-2 cells
- Format: in vitro ADME
- EXPERIMENTAL_PARAMETERS: human, pH 7.2; Table 7, compounds of the invention, CACO-2 cells, permeability B-A/permeability A-B; read-out: Efflux Ratio
MEASURED_METRIC: efflux ratio

Field: example entries. Status: answers known.
SMILES_RECORD: Cc1nn(C)c(C)c1-c1cc(C#N)c(N2CCC(F)(c3nncn3C)CC2)c(-c2cnc3nn(C(F)(F)F)cc3c2)n1
efflux ratio: 16.3
--
SMILES_RECORD: Cn1cnnc1C1(F)CCN(c2c(C#N)cc(C(F)(F)F)nc2-c2cc3cn(C(C)(C)C)nc3nc2C(F)F)CC1
efflux ratio: 5.3

1 = Cn1cnnc1C1(F)CCN(c2c(C#N)cc(C(C)(F)F)nc2-c2cnc3nn(C(F)(F)F)cc3c2)CC1
2 = Cc1cc(C#N)c(N2CCC(F)(c3nncn3C)CC2)c(-c2cnc3nn(C(F)(F)F)cc3c2)n1
Enquiry: Hi! Which is lower in terms of efflux ratio, the first one 1 or the second one 2 ? Lab note: record the label of whichever item you select.
Return: 1

---

- Test system: CYP3A4 mRNA
- ASSAY_NAME: Assay D: CYP induction screening assay in primary human hepatocytes
- Type: in vitro ADME
- EXPERIMENTAL_PARAMETERS: Table 10, prior art compounds, 48 h
- Experimental: Cryopreserved plateable human hepatocytes (single donor. BioIVT) were thawed and plated in Collagen-I coated 96-well-plates at a cell density of 0.07 million cells per well. After a 6 h attachment period, the seeding medium was replaced by serum-free William's medium E supplemented with Matrigel (0.25 mg/ml) and allowed to recover overnight. […] After 48 h of treatment in total, the effect of the test compounds on CYP3A4 mRNA expression was assessed using the QuantiGene Plex Gene Expression Assay. […]
MEASURED_METRIC: n-fold induction of CYP3A4 at 10 μM (n-fold)

COMPOUND: Cn1c(N)nnc1C1CCN(c2c(C#N)cccc2-c2ccc(F)nc2)CC1 [Compound 14, reference compound]
MEASURED_METRIC: n-fold induction of CYP3A4 at 10 μM
VALUE_REPORTED: 1.9

a = Cn1cc2c(-c3cccc(C#N)c3N3CCC(c4nncn4C)CC3)cncc2n1 [Compound 16, reference compound]
b = Cn1cnnc1C1CCN(c2c(C#N)cccc2-c2ccc3nonc3c2)CC1 [Compound 19, reference compound]
Enquiry: Hi! Which is lower in terms of n-fold induction of CYP3A4 at 10 μM, the first one a or the second one b ? Lab note: record the label of whichever item you select.
Return: a
(a: 1.5 n-fold, b: 15.8 n-fold)

---

- TESTED_ON: QPCT (Homo sapiens)
- Construct: purchased Origine (OriGene) TP700028
- Sequence (Q16769 29-361): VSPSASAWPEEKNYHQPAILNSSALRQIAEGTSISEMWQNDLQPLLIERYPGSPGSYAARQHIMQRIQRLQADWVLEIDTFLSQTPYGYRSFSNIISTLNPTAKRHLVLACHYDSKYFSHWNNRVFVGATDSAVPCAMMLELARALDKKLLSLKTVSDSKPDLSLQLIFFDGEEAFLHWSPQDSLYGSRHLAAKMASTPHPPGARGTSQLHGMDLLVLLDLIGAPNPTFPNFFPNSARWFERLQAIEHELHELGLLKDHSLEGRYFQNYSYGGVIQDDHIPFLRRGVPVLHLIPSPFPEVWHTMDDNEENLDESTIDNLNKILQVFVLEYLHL
- ASSAY_NAME: Assay A: biochemical QPCT activity assay (MALDI-TOF MS, CD47 peptide substrate)
- EXPERIMENTAL_PARAMETERS: Table 2, compounds of the invention, read-out: Inhibition of QPCT: IC50
pIC50: −log10 of the molar value.
MEASURED_METRIC: pIC50

COMPOUND: Cn1cnnc1C1(F)CCN(c2c(C#N)cc(C3CC3(F)F)nc2-c2ccnnc2)CC1 (stereo not drawn)
pIC50: 8.22
//
COMPOUND: Cn1cnnc1C1(F)CCN(c2c(C#N)cc(C(F)(F)F)nc2-c2cnc3nn(C(C)(C)C)cc3c2C(F)F)CC1
pIC50: 8.05

A = Cn1cnnc1C1(F)CCN(c2c(C#N)cc(C(C)(F)F)nc2-c2cnc3nn(C(F)(F)F)cc3c2)CC1
B = Cn1cnnc1C1(F)CCN(c2c(C#N)cc(C(C)(F)F)nc2-c2cnc3nn(C)c(C(F)(F)F)c3c2)CC1
C = Cn1cnnc1C1(F)CCN(c2c(C#N)cc(C(F)(F)F)nc2-c2cnc3nn(C)c(C(F)(F)F)c3c2)CC1
D = Cn1cnnc1C1(F)CCN(c2c(C#N)cc(C3CC3)nc2-c2cnc3nn(C(F)(F)F)cc3c2)CC1
Enquiry: Order the records by pIC50, with each subsequent value no larger than the one before. Please list each label once, in the requested order.
Return: D, A, B, C
(D: 9.00, A: 8.52, B: 8.30, C: 7.89)
